Assignment: determine reported viscosity for the given compounds.
- SETUP_CONDITIONS: 363.15 K; 100 kPa; Liquid; Concentric cylinders viscometry
Numbers after ± are expanded uncertainties.
I'd appreciate it if you included the unit after the number.

Guide cases for viscosity, answers given:
C=CCn1cc[n+](C)c1.O=S(=O)([N-]S(=O)(=O)C(F)(F)F)C(F)(F)F | 6.489 ± 0.3 mPa·s
CCCCCCn1cc[n+](C)c1.N#C[B-](C#N)(C#N)C#N [1-hexyl-3-methylimidazolium tetracyanoborate] | 5.982 ± 0.28 mPa·s
CCn1cc[n+](C)c1.N#C[B-](C#N)(C#N)C#N [1-ethyl-3-methylimidazolium tetracyanoborate] | 3.833 ± 0.18 mPa·s

Lab note: next compound to report on.
Value lookup for viscosity; key = `CCCC[N+]1(C)CCCC1.O=S(=O)([N-]S(=O)(=O)C(F)(F)F)C(F)(F)F`
10.33 ± 0.48 mPa·s

====

Assignment: determine reported viscosity for the given compounds.
- SETUP_CONDITIONS: 353.15 K; 100 kPa; Liquid; Concentric cylinders viscometry
Numbers after ± are expanded uncertainties.
I'd appreciate it if you included the unit after the number.

Guide cases for viscosity, answers given:
CCn1cc[n+](C)c1.N#C[B-](C#N)(C#N)C#N [1-ethyl-3-methylimidazolium tetracyanoborate] | 4.537 ± 0.21 mPa·s
CCCC[N+]1(C)CCCC1.O=S(=O)([N-]S(=O)(=O)C(F)(F)F)C(F)(F)F | 12.86 ± 0.59 mPa·s
CCCCCCn1cc[n+](C)c1.N#C[B-](C#N)(C#N)C#N [1-hexyl-3-methylimidazolium tetracyanoborate] | 7.423 ± 0.34 mPa·s

Lab note: next compound to report on.
Value lookup for viscosity; key = `C=CCn1cc[n+](C)c1.O=S(=O)([N-]S(=O)(=O)C(F)(F)F)C(F)(F)F`
7.783 ± 0.36 mPa·s
